// provenance: the Human Domainome abundance scans (Beltran et al. 2025)

B1: Intersectin-1, residues 1156 to 1213; numbered along this chain, Q15811 (parent)
chain: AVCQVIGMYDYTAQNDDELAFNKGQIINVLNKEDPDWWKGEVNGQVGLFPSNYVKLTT

variants of: B1; assay: abundance fitness (aPCA) (normalised: wild type 0, dead -1); higher = more abundant; growth selection in yeast, the domain comes from the species named; details: Homo sapiens
Quantity: abundance fitness

[[record]]
sequence_code = "AVCQVIGMYDYTAQNDDELAFNKGQIINVLNKEDPDWWKGEVNGQVGRFPSNYVKLTT [L48R]"
quantity = "abundance fitness"
obs_value = -0.07

[[record]]
sequence_code = "AVCQVIGMYDYTAQNDDELAFNKGQIINVLNKRDPDWWKGEVNGQVGLFPSNYVKLTT [E33R]"
quantity = "abundance fitness"
obs_value = -0.367

[[record]]
sequence_code = "AVCQVIGMYDYTAQNDDELAFNKGQIINVLIKEDPDWWKGEVNGQVGLFPSNYVKLTT [N31I]"
quantity = "abundance fitness"
obs_value = -0.559

[[record]]
sequence_code = "AVCQVIGMYDYTAQNDDELAFNKGQIINVLNKEDPDWWKGQVNGQVGLFPSNYVKLTT [E41Q]"
quantity = "abundance fitness"
obs_value = -0.863

[[record]]
sequence_code = "AVCQVIGMYDYTAQNDDELAFNKGQIINVLNKEDPDWWKGEVNEQVGLFPSNYVKLTT [G44E]"
quantity = "abundance fitness"
obs_value = -0.911

[[record]]
sequence_code = "AVCQVIGMYDYTAMNDDELAFNKGQIINVLNKEDPDWWKGEVNGQVGLFPSNYVKLTT [Q14M]"
quantity = "abundance fitness"
obs_value = -0.284

[[record]]
sequence_code = "AVCQVIGMYDYTAQNDDELAFNGGQIINVLNKEDPDWWKGEVNGQVGLFPSNYVKLTT [K23G]"
quantity = "abundance fitness"
obs_value = -0.701

[[record]]
sequence_code = "AVCQVIGMYDYTAQNDDELAFNKGQIINVLNKEHPDWWKGEVNGQVGLFPSNYVKLTT [D34H]"
quantity = "abundance fitness"
obs_value = -0.158

[[record]]
sequence_code = "AVCQVIGMYDYTRQNDDELAFNKGQIINVLNKEDPDWWKGEVNGQVGLFPSNYVKLTT [A13R]"
quantity = "abundance fitness"
obs_value = -0.451

[[record]]
sequence_code = "AVCQVIGMYDYTAQNDDELAFNKGQCINVLNKEDPDWWKGEVNGQVGLFPSNYVKLTT [I26C]"
quantity = "abundance fitness"
obs_value = -0.149

[[record]]
sequence_code = "AVCQVIGMYDYTAQNDDELAFNKGQIINWLNKEDPDWWKGEVNGQVGLFPSNYVKLTT [V29W]"
quantity = "abundance fitness"
obs_value = -0.672

[[record]]
sequence_code = "AVCQVIGMYDYTAQNDDELAFNKGQIINVLNKEDPDWWKGECNGQVGLFPSNYVKLTT [V42C]"
quantity = "abundance fitness"
obs_value = 0.091

[[record]]
sequence_code = "AVCQVIGMYDYTAQNDDELAFNKGQIINVLNKEDPDEWKGEVNGQVGLFPSNYVKLTT [W37E]"
quantity = "abundance fitness"
obs_value = -0.737

[[record]]
sequence_code = "AVCQVIGMYDYTARNDDELAFNKGQIINVLNKEDPDWWKGEVNGQVGLFPSNYVKLTT [Q14R]"
quantity = "abundance fitness"
obs_value = 0.038

[[record]]
sequence_code = "AVCQVIGMYDYTAQNDDELAFNKGQIINVGNKEDPDWWKGEVNGQVGLFPSNYVKLTT [L30G]"
quantity = "abundance fitness"
obs_value = -0.933

[[record]]
sequence_code = "AVKQVIGMYDYTAQNDDELAFNKGQIINVLNKEDPDWWKGEVNGQVGLFPSNYVKLTT [C3K]"
quantity = "abundance fitness"
obs_value = -0.597

[[record]]
sequence_code = "AVCQVIGMYDYTAQNDDELAFNKGQIINVLNKEDPDWWKGEGNGQVGLFPSNYVKLTT [V42G]"
quantity = "abundance fitness"
obs_value = -0.62

[[record]]
sequence_code = "AVCQGIGMYDYTAQNDDELAFNKGQIINVLNKEDPDWWKGEVNGQVGLFPSNYVKLTT [V5G]"
quantity = "abundance fitness"
obs_value = -0.309

[[record]]
sequence_code = "AVCQVIGMYDYTAKNDDELAFNKGQIINVLNKEDPDWWKGEVNGQVGLFPSNYVKLTT [Q14K]"
quantity = "abundance fitness"
obs_value = 0.161

[[record]]
sequence_code = "AVCQVIGMYDYTAQNDDELNFNKGQIINVLNKEDPDWWKGEVNGQVGLFPSNYVKLTT [A20N]"
quantity = "abundance fitness"
obs_value = -0.484

[[record]]
sequence_code = "AVCQVIGMYDYTAQNDDELAFNKGQIINVLNKFDPDWWKGEVNGQVGLFPSNYVKLTT [E33F]"
quantity = "abundance fitness"
obs_value = -0.61

[[record]]
sequence_code = "AVCQVIGMYDYTAQNDDELAFNKGQIINVLNKEDPDWWKGEVNGQVGLYPSNYVKLTT [F49Y]"
quantity = "abundance fitness"
obs_value = -0.782

